Assay: CREB reporter modulators under forskolin, primary screen, cell-based, PC12, CRE-LacZ reporter, forskolin-stimulated (AID 1146);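 also: PC12 cells with 6xCRE LacZ reporter stimulated by forskolin 10 µM; beta-galactosidase reporter signal reflecting CREB driven transcription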
Conditions: luminescence, 4.5 h, higher = more signal, called active from +8 up or from −8 down
Quick rule for you: z-score at -0.2 or higher means class 1, lower means class 0.

• C[C@@H](c1ccccc1)N1C(=O)[C@H]2[C@H]3[C@H](O)[C@H](O)CC(=O)[C@@H]3CC[C@H]2C1=O = class 1
• CO[C@@H]1C=CCC(=O)N2CCC[C@H]2C(=O)OC[C@H](C)C(=O)OC[C@H]1C = class 1
• CCOC(=O)NN=C1C[C@@H](O)[C@@H](O)[C@@H]2[C@@H]3C(=O)N(Cc4ccccc4)C(=O)[C@@H]3CC[C@@H]12 = class 1
• CO[C@H]1COC(=O)CC=C[C@@H](C)COC(=O)[C@@H](OCc2ccccc2)C=C[C@@H]1C = class 0
• CC(C)=CCCC(C)=CCON=C1C[C@@H](O)[C@@H](O)[C@@H]2[C@@H]3C(=O)N([C@@H](C)c4ccccc4)C(=O)[C@@H]3CC[C@H]12 = class 0
• Cc1cc2c(nc1C)CCCN2CC(C)ON=C[C@@H](C)[C@H](OCc1ccccc1)C(C)C (some centres not stated) = class 1
• CCCNC(=O)OC[C@H]1O[C@H](CCON=C(C)CCN2CCc3nc(-c4ccccc4)c(-c4ccccc4)cc3C2)C=C[C@@H]1Oc1ccc(OC)cc1 = class 1

---

Test: binders of probe aHhip on microarray, primary screen, stem cell growth factor project, biochemical, small-molecule microarray, fluorescence 635/667 (AID 1087);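 also: score merges spot fluorescence at 667nm with spot signal to noise ratio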
Settings: higher = more signal
composite z-score class ranges: class A: < -0.1; class B: ≥ -0.1 and < -0.04; class C: ≥ -0.04

- CC(C)CCN1CCc2nc(-c3ccccc3)c3c(c2C1)CO[C@@H](C)C3: class C
- CO[C@@H]1COC(=O)CC=C[C@H](C)COC(=O)[C@H](C)NC(=O)CC=C[C@H]1C: class C
- CCOC(=O)[C@H](CC(C)C)NC(=O)CCC1CC(OC(=O)NCc2cccc3ccccc23)CC2(CCCC(COC(=O)NCc3ccccc3)O2)O1 (stereo not given in full): class A
- C[C@@H](c1ccccc1)N1C(=O)[C@H]2[C@H]3[C@H](O)[C@H](O)CC(=O)[C@@H]3CC[C@H]2C1=O: class B
- COc1ccc(COC(=O)NN=C2C[C@@H](O)[C@@H](O)[C@@H]3[C@@H]4C(=O)N(C(C)(C)C)C(=O)[C@@H]4CC[C@H]23)cc1: class A
- CCN1C(=O)[C@H]2[C@H]3[C@H](O)[C@H](O)CC(=NOC)[C@@H]3CC[C@H]2C1=O: class C
- CCN1C(=O)[C@H]2[C@H]3[C@H](O)[C@H](O)CC(=NNC(=O)OCc4ccc(OC)cc4)[C@H]3CC[C@H]2C1=O: class B
- CO[C@@H]1C=CCC(=O)N2CCC[C@H]2C(=O)OC[C@H](C)C(=O)OC[C@H]1C: class C
- O=C(NN=C1C[C@@H](O)[C@@H](O)[C@@H]2[C@@H]3C(=O)N(Cc4ccc5c(c4)OCO5)C(=O)[C@@H]3CC[C@H]12)OCc1ccccc1: class A
- O=C1[C@H]2[C@H]3[C@H](O)[C@H](O)CC(=NOCc4ccccc4)[C@H]3CC[C@H]2C(=O)N1Cc1ccccc1: class A
